The listing below reports pKi for molecules tested on human a-thrombin (Homo sapiens, UniProt P00734).
pKi: −log10 of the molar value. Counter-ions that a name gives are not always drawn.

Example entries and their recorded answers appear below.
>>> obs_value("Cc1cc(CNc2cnc3n(c2=O)[C@H](C(=O)NCc2ccc(N)nc2C)CC3)cc(C(F)(F)F)c1 [Compound 29, di-trifluoroacetate]")
"5.60 to 6.30"
>>> obs_value("Cc1cc(Cl)cc(CNc2cnc3n(c2=O)[C@H](C(=O)NCc2cnc4c(c2)CNC4)CC3)c1 [Compound 65, di-trifluoroacetate]")
"< 4.60"

Q. Fill in the recorded pKi for this molecule, with human a-thrombin (Homo sapiens, UniProt P00734) as test system: "Cc1cc(C)cc(CNc2cnc3n(c2=O)[C@H](C(=O)NCc2ccnc(C)c2)CC3)c1"
A. < 4.60

Q. Fill in the recorded pKi for this molecule, with human a-thrombin (Homo sapiens, UniProt P00734) as test system: Cc1nc(N)ccc1CNC(=O)[C@@H]1CCc2ncc(NCc3ccc(C(F)(F)F)cc3F)c(=O)n21 [Compound 43, di-trifluoroacetate]
A. 5.00 to 5.60

Q. Fill in the recorded pKi for this molecule, with human a-thrombin (Homo sapiens, UniProt P00734) as test system: "N#Cc1cc(CNc2cnc3n(c2=O)[C@H](C(=O)N[C@@H]2CCc4nc(N)ccc42)CC3)cc(C(F)(F)F)c1"
A. 5.60 to 6.30

Q. Fill in the recorded pKi for this molecule, with human a-thrombin (Homo sapiens, UniProt P00734) as test system: "Cc1cccc(CNc2cnc3n(c2=O)[C@H](C(=O)NCc2ccc(N)nc2C)CC3)c1"
A. 5.60 to 6.30

Q. Fill in the recorded pKi for this molecule, with human a-thrombin (Homo sapiens, UniProt P00734) as test system: Cc1cccc(CNc2cnc3n(c2=O)[C@H](C(=O)NCc2ccc(N)nc2C)CC3)c1C [Compound 30, trifluoroacetate]
A. 5.60 to 6.30

Q. Fill in the recorded pKi for this molecule, with human a-thrombin (Homo sapiens, UniProt P00734) as test system: "COc1cc(Cl)cc(CNc2cnc3n(c2=O)[C@@H](C(=O)N[C@H](C)c2ccc(N)nc2)CC3)c1"
A. < 4.60

Q. Fill in the recorded pKi for this molecule, with human a-thrombin (Homo sapiens, UniProt P00734) as test system: "Cc1nc(N)ccc1CNC(=O)[C@@H]1CCc2ncc(NCc3cccc(C#N)c3)c(=O)n21"
A. 5.60 to 6.30

Q. Fill in the recorded pKi for this molecule, with human a-thrombin (Homo sapiens, UniProt P00734) as test system: Cc1nc(N)ccc1CNC(=O)[C@@H]1CCc2ncc(NCc3cccc(-n4cccn4)c3)c(=O)n21 [Compound 40, trifluoroacetate]
A. 5.60 to 6.30

Q. Fill in the recorded pKi for this molecule, with human a-thrombin (Homo sapiens, UniProt P00734) as test system: "Cc1cc(C)cc(CNc2cnc3n(c2=O)[C@H](C(=O)N[C@H](C)c2ccc(N)nc2C)CC3)c1"
A. 4.60 to 5.00

Q. Fill in the recorded pKi for this molecule, with human a-thrombin (Homo sapiens, UniProt P00734) as test system: Cc1nc(N)ccc1CNC(=O)[C@@H]1CCc2ncc(NCc3ccc(-n4cccn4)cc3)c(=O)n21 [Compound 44, trifluoroacetate]
A. 4.60 to 5.00

Origin of values: patent US20240228499A1
